Recorded values, source patent US20100113367A1.

measurementTarget: native bombesin/GRP receptor of AR42J rat pancreas cells (rat) (UniProt P52500)
Sequence (P52500 whole entry): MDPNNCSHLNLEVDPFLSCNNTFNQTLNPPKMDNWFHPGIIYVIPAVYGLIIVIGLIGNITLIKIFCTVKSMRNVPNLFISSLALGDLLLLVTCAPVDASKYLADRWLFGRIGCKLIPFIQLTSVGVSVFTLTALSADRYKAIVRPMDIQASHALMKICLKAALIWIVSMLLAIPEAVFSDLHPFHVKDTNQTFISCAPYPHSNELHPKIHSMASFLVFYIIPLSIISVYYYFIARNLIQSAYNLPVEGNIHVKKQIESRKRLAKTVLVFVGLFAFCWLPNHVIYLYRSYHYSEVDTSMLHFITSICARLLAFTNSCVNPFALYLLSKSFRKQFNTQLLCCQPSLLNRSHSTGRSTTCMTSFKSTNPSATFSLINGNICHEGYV
protocolDescription: radioligand displacement, AR42J rat pancreas cell membranes, tracer [125I-Tyr4]bombesin
pKi: −log10 of the molar value. Numbered stars: 1 amine (or outer) side, 2 acyl side, 3 side chain; on linkers, the order of the positions; unused ones are H or OH. Square brackets hold non-standard residues; d marks the D form. Pipz(1-CH2CO,4-CH2CH2NH) = O=C(CN1CCN(CCN[*:1])CC1)[*:2]; Suc = O=C(CCC(=O)[*:2])[*:1]; Nle = CCCC[C@H](N)C(=O)O; rvGly = not defined here; Apn = not defined here; AEEA = NCCOCCOCC(=O)O; Ahx = NCCCCCC(=O)O; GABA = NCCCC(=O)O; βAla = NCCC(=O)O
endpointName: pKi

INSERT INTO assay_data (binder, numericreadout) VALUES
  ('Camptothecin-[rvGly][Suc][AEEA][AEEA][AEEA][AEEA][Pipz(1-CH2CO,4-CH2CH2NH)]L[GABA]QWAV[βAla]HL[Nle]-NH2 [Camptothecin-rvGly-Suc-(Doc)4-Aepa-Leu-Gaba-Gln-Trp-Ala-Val-β-Ala-His-Leu-Nle-NH2]', 7.74),
  ('Camptothecin-[rvGly][Suc][AEEA][AEEA][AEEA][AEEA][Pipz(1-CH2CO,4-CH2CH2NH)][Apn]NQWAV[βAla]HL[Nle]-NH2 (reading uncertain; also: printed as Camptothecin-rvGly-Suc-(Doc)4-Aepa-Apn-Asn-Gln-Trp-Ala-Val-β-Ala-His-Leu-Nle-NH2) [Camptothecin-rvGly-Suc-(Doc)4-Aepa-Apn-Asn-Gln-Trp-Ala-Val-β-Ala-His-Leu-Nle-NH2]', 8.39),
  ('Camptothecin-[rvGly][Suc][AEEA][AEEA][AEEA][AEEA][Pipz(1-CH2CO,4-CH2CH2NH)][Nle]QWAV[βAla]HL[Nle]-NH2 [Camptothecin-rvGly-Suc-(Doc)4-Aepa-Nle-Gln-Trp-Ala-Val-β-Ala-His-Leu-Nle-NH2]', 8.34),
  ('{Camptothecin-rvGly-Suc-AEEA-AEEA-AEEA-AEEA-Pipz(1-CH2CO,4-CH2CH2NH)}-[dS][dY]QWAV[βAla]HL[Nle]-NH2 (reading uncertain; also: printed as Camptothecin-rvGly-Suc-(Doc)4-Aepa-D-Ser-D-Tyr-Gln-Trp-Ala-Val-β-Ala-His-Leu-Nle-NH2) [Camptothecin-rvGly-Suc-(Doc)4-Aepa-D-Ser-D-Tyr-Gln-Trp-Ala-Val-β-Ala-His-Leu-Nle-NH2]', 8.40),
  ('Camptothecin-[rvGly][Suc][AEEA][AEEA][AEEA][AEEA][Pipz(1-CH2CO,4-CH2CH2NH)][Ahx]QWAV[βAla]HL[Nle]-NH2 [Camptothecin-rvGly-Suc-(Doc)4-Aepa-Ahx-Gln-Trp-Ala-Val-β-Ala-His-Leu-Nle-NH2]', 8.72);
